- targetOfAssay: 11β-HSD1 Reductase (Rattus norvegicus, UniProt P16232)
- Construct: testicular leydig cell homogenates; from tissue; host or cells: testicular Leydig cell homogenates
- Sequence (P16232 whole entry): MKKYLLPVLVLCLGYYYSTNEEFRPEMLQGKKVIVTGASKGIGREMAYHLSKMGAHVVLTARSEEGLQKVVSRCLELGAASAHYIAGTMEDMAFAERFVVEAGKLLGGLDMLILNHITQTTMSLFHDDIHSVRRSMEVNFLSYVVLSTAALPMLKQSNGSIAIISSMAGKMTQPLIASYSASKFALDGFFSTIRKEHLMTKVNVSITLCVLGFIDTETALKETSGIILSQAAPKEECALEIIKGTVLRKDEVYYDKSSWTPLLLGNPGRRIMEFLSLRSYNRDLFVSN
- testDetails: 11β-HSD1 reductase inhibition, testicular Leydig cell homogenates
- Type: biochemical
- cond: result in words
quantityName: 11β-HSD1 Reductase inhibition

[
  {
    "compoundSmiles": "C[C@]12CC[C@@H](O)C[C@@H]1CC[C@@H]1[C@@H]2[C@@H](O)C[C@]2(C)[C@@H](C(=O)CO)CC[C@@H]12",
    "targetOfAssay": "11β-HSD1 Reductase (Rattus norvegicus, UniProt P16232)",
    "11β-HSD1 Reductase inhibition": "No Inhibition"
  },
  {
    "compoundSmiles": "C[C@]12CC[C@@H](O)C[C@@H]1CC[C@@H]1[C@@H]2C(=O)C[C@]2(C)C(=O)CC[C@@H]12",
    "targetOfAssay": "11β-HSD1 Reductase (Rattus norvegicus, UniProt P16232)",
    "11β-HSD1 Reductase inhibition": "Selective Inhibitor"
  },
  {
    "compoundSmiles": "C[C@H](CCC(=O)O)[C@H]1CC[C@H]2[C@@H]3[C@H](O)C[C@@H]4C[C@H](O)CC[C@]4(C)[C@H]3CC[C@]12C",
    "targetOfAssay": "11β-HSD1 Reductase (Rattus norvegicus, UniProt P16232)",
    "11β-HSD1 Reductase inhibition": "No Inhibition"
  },
  {
    "compoundSmiles": "C[C@]12CC[C@@H](O)C[C@@H]1CC[C@@H]1[C@@H]2[C@@H](O)C[C@@]2(C)[C@@H]1CC[C@@H]2O",
    "targetOfAssay": "11β-HSD1 Reductase (Rattus norvegicus, UniProt P16232)",
    "11β-HSD1 Reductase inhibition": "No Inhibition"
  },
  {
    "compoundSmiles": "CC(=O)[C@H]1CC[C@H]2[C@@H]3CC[C@H]4C[C@@H](O)CC[C@]4(C)[C@H]3[C@@H](O)C[C@]12C",
    "targetOfAssay": "11β-HSD1 Reductase (Rattus norvegicus, UniProt P16232)",
    "11β-HSD1 Reductase inhibition": "No Inhibition"
  }
]

Record 11β-HSD1 Reductase inhibition per entry; entries follow.
1. CC(=O)[C@H]1CC[C@H]2[C@@H]3CCC4=CC(=O)CC[C@]4(C)[C@H]3[C@@H](O)C[C@]12C
2. C[C@]12C[C@H](O)[C@H]3[C@@H](CCC4=CC(=O)CC[C@@]43C)[C@@H]1CC[C@@H]2O
3. C[C@]12CC(=O)[C@H]3[C@@H](CCC4=CC(=O)CC[C@@]43C)[C@@H]1CC[C@@H]2O

1: No Inhibition; 2: No Inhibition; 3: Selective Inhibitor
